test_description: Single-ascending-dose phase 1 study: plasma and urine pharmacokinetics
Type: in vivo, humans
run_conditions: human; single 200 mg IV infusion over 1 h, plasma, arithmetic mean
Numbered stars: 1 amine (or outer) side, 2 acyl side, 3 side chain; on linkers, the order of the positions; unused ones are H or OH. Bridge positions count the residues as written; N and C are the ends. Square brackets hold non-standard residues; d marks the D form. Peptide text beside a SMILES is read from it. * marks the point of attachment. Orn(4R-OH,5R-OCH2CH2NMe3+) = C[N+](C)(C)CCO[C@@H](N[*:3])[C@H](O)C[C@H](N[*:1])C(=O)[*:2]; pTerphenylCO(4''-OnC5H11) = CCCCCOc1ccc(-c2ccc(-c3ccc(C(=O)*)cc3)cc2)cc1; hTyr(3S-OH,4S-OH) = N[C@H](C(=O)O)[C@H](O)[C@@H](O)c1ccc(O)cc1; Pro(3S-OH,4S-Me) = C[C@H]1CN[C@H](C(=O)O)[C@H]1O; Hyp = O=C(O)[C@@H]1C[C@@H](O)CN1

compound	half-life (days)
CCCCCOc1ccc(-c2ccc(-c3ccc(C(=O)N[C@H]4C[C@@H](O)[C@@H](OCC[N+](C)(C)C)NC(=O)[C@@H]5[C@@H](O)[C@@H](C)CN5C(=O)[C@H]([C@@H](C)O)NC(=O)[C@H]([C@H](O)[C@@H](O)c5ccc(O)cc5)NC(=O)[C@@H]5C[C@@H](O)CN5C(=O)[C@H]([C@@H](C)O)NC4=O)cc3)cc2)cc1 [CD101] ({pTerphenylCO(4''-OnC5H11)}-[Orn(4R-OH,5R-OCH2CH2NMe3+)]T[Hyp][hTyr(3S-OH,4S-OH)]T[Pro(3S-OH,4S-Me)]; lactam 1-C)	5.21

====

test_description: Multiple-ascending-dose phase 1 study: plasma and urine pharmacokinetics
Type: in vivo, humans
run_conditions: human; 400 mg IV once weekly x3, day 1, plasma, arithmetic mean
Numbered stars: 1 amine (or outer) side, 2 acyl side, 3 side chain; on linkers, the order of the positions; unused ones are H or OH. Bridge positions count the residues as written; N and C are the ends. Square brackets hold non-standard residues; d marks the D form. Peptide text beside a SMILES is read from it. * marks the point of attachment. Orn(4R-OH,5R-OCH2CH2NMe3+) = C[N+](C)(C)CCO[C@@H](N[*:3])[C@H](O)C[C@H](N[*:1])C(=O)[*:2]; pTerphenylCO(4''-OnC5H11) = CCCCCOc1ccc(-c2ccc(-c3ccc(C(=O)*)cc3)cc2)cc1; hTyr(3S-OH,4S-OH) = N[C@H](C(=O)O)[C@H](O)[C@@H](O)c1ccc(O)cc1; Pro(3S-OH,4S-Me) = C[C@H]1CN[C@H](C(=O)O)[C@H]1O; Hyp = O=C(O)[C@@H]1C[C@@H](O)CN1
measurement_name: Cmax (ng/mL)

compound	measurement_name	numeric_value
CCCCCOc1ccc(-c2ccc(-c3ccc(C(=O)N[C@H]4C[C@@H](O)[C@@H](OCC[N+](C)(C)C)NC(=O)[C@@H]5[C@@H](O)[C@@H](C)CN5C(=O)[C@H]([C@@H](C)O)NC(=O)[C@H]([C@H](O)[C@@H](O)c5ccc(O)cc5)NC(=O)[C@@H]5C[C@@H](O)CN5C(=O)[C@H]([C@@H](C)O)NC4=O)cc3)cc2)cc1 [CD101] ({pTerphenylCO(4''-OnC5H11)}-[Orn(4R-OH,5R-OCH2CH2NMe3+)]T[Hyp][hTyr(3S-OH,4S-OH)]T[Pro(3S-OH,4S-Me)]; lactam 1-C)	Cmax	22700

====

test_description: Multiple-ascending-dose phase 1 study: plasma and urine pharmacokinetics
Format: in vivo, humans
run_conditions: human, plasma, iv, 200 mg, 200 mg IV once weekly x2, day 8, arithmetic mean; read-out: Vss
Numbered stars: 1 amine (or outer) side, 2 acyl side, 3 side chain; on linkers, the order of the positions; unused ones are H or OH. Bridge positions count the residues as written; N and C are the ends. Square brackets hold non-standard residues; d marks the D form. Peptide text beside a SMILES is read from it. * marks the point of attachment. Orn(4R-OH,5R-OCH2CH2NMe3+) = C[N+](C)(C)CCO[C@@H](N[*:3])[C@H](O)C[C@H](N[*:1])C(=O)[*:2]; pTerphenylCO(4''-OnC5H11) = CCCCCOc1ccc(-c2ccc(-c3ccc(C(=O)*)cc3)cc2)cc1; hTyr(3S-OH,4S-OH) = N[C@H](C(=O)O)[C@H](O)[C@@H](O)c1ccc(O)cc1; Pro(3S-OH,4S-Me) = C[C@H]1CN[C@H](C(=O)O)[C@H]1O; Hyp = O=C(O)[C@@H]1C[C@@H](O)CN1
measurement_name: Vd (L)

compound	unit_label	numeric_value
CCCCCOc1ccc(-c2ccc(-c3ccc(C(=O)N[C@H]4C[C@@H](O)[C@@H](OCC[N+](C)(C)C)NC(=O)[C@@H]5[C@@H](O)[C@@H](C)CN5C(=O)[C@H]([C@@H](C)O)NC(=O)[C@H]([C@H](O)[C@@H](O)c5ccc(O)cc5)NC(=O)[C@@H]5C[C@@H](O)CN5C(=O)[C@H]([C@@H](C)O)NC4=O)cc3)cc2)cc1 [CD101] ({pTerphenylCO(4''-OnC5H11)}-[Orn(4R-OH,5R-OCH2CH2NMe3+)]T[Hyp][hTyr(3S-OH,4S-OH)]T[Pro(3S-OH,4S-Me)]; lactam 1-C)	L	28.5

====

test_description: Single-ascending-dose phase 1 study: plasma and urine pharmacokinetics
Assay type: in vivo, humans
run_conditions: human, plasma, iv, 100 mg, single 100 mg IV infusion over 1 h, plasma, arithmetic mean; read-out: Vz (apparent volume of distribution during terminal phase)
Numbered stars: 1 amine (or outer) side, 2 acyl side, 3 side chain; on linkers, the order of the positions; unused ones are H or OH. Bridge positions count the residues as written; N and C are the ends. Square brackets hold non-standard residues; d marks the D form. Peptide text beside a SMILES is read from it. * marks the point of attachment. Orn(4R-OH,5R-OCH2CH2NMe3+) = C[N+](C)(C)CCO[C@@H](N[*:3])[C@H](O)C[C@H](N[*:1])C(=O)[*:2]; pTerphenylCO(4''-OnC5H11) = CCCCCOc1ccc(-c2ccc(-c3ccc(C(=O)*)cc3)cc2)cc1; hTyr(3S-OH,4S-OH) = N[C@H](C(=O)O)[C@H](O)[C@@H](O)c1ccc(O)cc1; Pro(3S-OH,4S-Me) = C[C@H]1CN[C@H](C(=O)O)[C@H]1O; Hyp = O=C(O)[C@@H]1C[C@@H](O)CN1
measurement_name: Vd (L)

molecule	measurement_name	numeric_value
CCCCCOc1ccc(-c2ccc(-c3ccc(C(=O)N[C@H]4C[C@@H](O)[C@@H](OCC[N+](C)(C)C)NC(=O)[C@@H]5[C@@H](O)[C@@H](C)CN5C(=O)[C@H]([C@@H](C)O)NC(=O)[C@H]([C@H](O)[C@@H](O)c5ccc(O)cc5)NC(=O)[C@@H]5C[C@@H](O)CN5C(=O)[C@H]([C@@H](C)O)NC4=O)cc3)cc2)cc1 [CD101] ({pTerphenylCO(4''-OnC5H11)}-[Orn(4R-OH,5R-OCH2CH2NMe3+)]T[Hyp][hTyr(3S-OH,4S-OH)]T[Pro(3S-OH,4S-Me)]; lactam 1-C)	Vd	50.6

====

test_description: Multiple-ascending-dose phase 1 study: plasma and urine pharmacokinetics
Format: in vivo, humans
run_conditions: human, plasma, iv, 400 mg, 400 mg IV once weekly x3, day 1, arithmetic mean; read-out: Vss
Numbered stars: 1 amine (or outer) side, 2 acyl side, 3 side chain; on linkers, the order of the positions; unused ones are H or OH. Bridge positions count the residues as written; N and C are the ends. Square brackets hold non-standard residues; d marks the D form. Peptide text beside a SMILES is read from it. * marks the point of attachment. Orn(4R-OH,5R-OCH2CH2NMe3+) = C[N+](C)(C)CCO[C@@H](N[*:3])[C@H](O)C[C@H](N[*:1])C(=O)[*:2]; pTerphenylCO(4''-OnC5H11) = CCCCCOc1ccc(-c2ccc(-c3ccc(C(=O)*)cc3)cc2)cc1; hTyr(3S-OH,4S-OH) = N[C@H](C(=O)O)[C@H](O)[C@@H](O)c1ccc(O)cc1; Pro(3S-OH,4S-Me) = C[C@H]1CN[C@H](C(=O)O)[C@H]1O; Hyp = O=C(O)[C@@H]1C[C@@H](O)CN1
measurement_name: Vd (L)

compound	unit_label	numeric_value
CCCCCOc1ccc(-c2ccc(-c3ccc(C(=O)N[C@H]4C[C@@H](O)[C@@H](OCC[N+](C)(C)C)NC(=O)[C@@H]5[C@@H](O)[C@@H](C)CN5C(=O)[C@H]([C@@H](C)O)NC(=O)[C@H]([C@H](O)[C@@H](O)c5ccc(O)cc5)NC(=O)[C@@H]5C[C@@H](O)CN5C(=O)[C@H]([C@@H](C)O)NC4=O)cc3)cc2)cc1 [CD101] ({pTerphenylCO(4''-OnC5H11)}-[Orn(4R-OH,5R-OCH2CH2NMe3+)]T[Hyp][hTyr(3S-OH,4S-OH)]T[Pro(3S-OH,4S-Me)]; lactam 1-C)	L	29.6
